Assay: yeast display, Sf9 membrane polyspecificity reagent, FACS + sequencing; frameworks hold sequencing errors
RECORDED METRIC: polyreactivity (PSR sort gate)

SEQUENCE STRING	RESULT
QVQLVESGGGLVQAGGSLRLSCPASGSISRQYAMGWYRQAPGKERELVAAITVRGGSTYYADSVKGRFTISRDNAKNTVYLQMNSLKPEDTAVYYCAKYTRYSASYDYWGQGTQVTVSS	high polyreactivity
QVQLVESGGGLVQAGGSLRLSCAASGSIFSANTMGWYRQEPGKEREFVAGITTSAGRTYYADSVKGRFTISRDNAKNTVYLQMNSLKPEDTAVYYCAARVWRSYNYWGQGTQVTVSS	high polyreactivity
QVQLVESGGGVVQAGGSLRLSCAASGITFTVNAIGWYRQAPGKDREFFAAITYSGGNTYYADSVKGRFTISRDNAKNTVYLQMNSLTPEDTAVYYCNSDSAVGIVGARFFYDYWGQGTQVTVSS	low polyreactivity
QVQLVESGGGLVQAGGSLRLSCAASGFTFGYNDMGWYRQAPGKERELVAGIRSGDDTNYADSVKGRFTISRDNAKNTVYLQMYSLKPEDTAVYYCAADRTTYTYYLPYDYWGQGTQVTVSS	low polyreactivity
QVQLVESGGGLVQAGGSLRLSCAASGNTFSTYGMGWYRQAPGKERELVAGITSDGRTNYADSVKGRFTISRDNAKNTVYLQMNSMKPEVTAVYYCAAEWASRFAVFWAYPKYDYWGQGTQVTVSS	low polyreactivity

Hey, just so you know, these numbers are from the nanobody polyreactivity screen of Harvey et al. (2022).
